# Tested on: ABUTH
# ASSAY NOTES: Pre-emergence herbicidal activity, glasshouse pot test; note: key: 5=total damage to plant; 0=no damage to plant
# Assay type: in vivo
# CONDITION: rate 1000 g/Ha, evaluated after 13 days, scale 0-5
MEASURED QUANTITY: ABUTH damage score, application pre-emergence

[[record]]
molecule = "C=Cc1cnc(N2C(=O)N(C)C(C)C2O)cc1C(F)(F)F (stereo not shown) [Compound A62]"
recorded_value = 4

[[record]]
molecule = "C=CCC1C(O)N(c2cc(C(F)(F)F)ccn2)C(=O)N1C (stereo not shown) [Compound A32]"
recorded_value = 5

[[record]]
molecule = "CC1C(O)N(c2cc(Cl)ccn2)C(=O)N1C (stereo not shown) [Compound A92]"
recorded_value = 5

[[record]]
molecule = "CC1C(O)N(c2cc(C(F)F)ccn2)C(=O)N1C (stereo not shown) [Compound A84]"
recorded_value = 5

[[record]]
molecule = "COC1C(O)N(c2cc(C(F)(F)F)ccn2)C(=O)N1C (stereo not shown) [Compound A5]"
recorded_value = 5

[[record]]
molecule = "CON1C(=O)N(c2cc(Cl)c(C(=O)NC(C)(C)C)cn2)C(O)C1C (stereo not shown) [Compound A70]"
recorded_value = 5

[[record]]
molecule = "C#CCOC1C(O)N(c2cc(C(F)(F)F)ccn2)C(=O)N1C (stereo not shown) [Compound A44]"
recorded_value = 5

[[record]]
molecule = "C[C@@H]1C(O)N(c2cc(C(F)(F)F)ccn2)C(=O)N1C (mixture of isomers) [Compound A38]"
recorded_value = 5

[[record]]
molecule = "COC(OC)C1C(O)N(c2cc(C(F)(F)F)ccn2)C(=O)N1C (stereo not shown) [Compound A42]"
recorded_value = 1

[[record]]
molecule = "CCC1C(O)N(c2cc(C(F)(F)F)ccn2)C(=O)N1OC (single isomer, unassigned) [Compound A28]"
recorded_value = 3

[[record]]
molecule = "CCCOC1C(O)N(c2cc(C(F)(F)F)ccn2)C(=O)N1C (stereo not shown) [Compound A2]"
recorded_value = 5

[[record]]
molecule = "CON1C(=O)N(c2cc(C(F)(F)F)ccn2)C(O)C1C (stereo not shown) [Compound A8]"
recorded_value = 5

[[record]]
molecule = "CCO[C@@H]1C(O)N(c2cc(C(F)(F)F)ccn2)C(=O)N1C (single isomer, unassigned) [Compound A34]"
recorded_value = 5

[[record]]
molecule = "CON1C(=O)N(c2cc(C(F)(F)F)c(C)cn2)C(O)C1C (single isomer, unassigned) [Compound A58]"
recorded_value = 5

[[record]]
molecule = "CC1C(O)N(c2cc(C(C)(F)F)ccn2)C(=O)N1C (stereo not shown) [Compound A60]"
recorded_value = 5

[[record]]
molecule = "CON1C(=O)N(c2cc(C(F)(F)F)c(Br)cn2)C(O)C1C (single isomer, unassigned) [Compound A55]"
recorded_value = 5

[[record]]
molecule = "CCOC1C(O)N(c2cc(Cl)c(C(=O)NC(C)(C)C)cn2)C(=O)N1C (stereo not shown) [Compound A69]"
recorded_value = 5

[[record]]
molecule = "CC1C(O)N(c2cc(C(F)(F)F)c(C(=O)NC(C)(C)C)cn2)C(=O)N1C (stereo not shown) [Compound A65]"
recorded_value = 5

[[record]]
molecule = "Cc1ccnc(N2C(=O)N(C)C(C)C2O)c1 (single isomer, unassigned) [Compound A27]"
recorded_value = 4


* * *

Recorded ECHCG damage score, application pre-emergence by entry
# Test system: ECHCG
# ASSAY NOTES: Pre-emergence herbicidal activity, glasshouse pot test
# Format: in vivo
# CONDITION: rate 1000 g/Ha, evaluated after 13 days, scale 0-5
MEASURED QUANTITY: ECHCG damage score, application pre-emergence

[[record]]
molecule = "CCOC1C(O)N(c2cc(C(F)(F)F)ccn2)C(=O)N1C (racemic) [Compound A6]"
recorded_value = 4

[[record]]
molecule = "CON1C(=O)N(c2ccc(C(=O)NC(C)(C)C)cn2)C(O)C1C (centres unmarked) [Compound A66]"
recorded_value = 5

[[record]]
molecule = "COc1ccncc1-c1cnc(N2C(=O)N(C)C(C)C2O)cc1C(F)(F)F (centres unmarked) [Compound A23]"
recorded_value = 2

[[record]]
molecule = "CON1C(=O)N(c2cc(Cl)c(C(=O)NC(C)(C)C)cn2)C(O)C1C (centres unmarked) [Compound A70]"
recorded_value = 5

[[record]]
molecule = "CON1C(=O)N(c2cc(C(F)(F)F)ccn2)C(NCc2ccccc2)[C@@H]1C (some centres unmarked) [Compound A104]"
recorded_value = 5

[[record]]
molecule = "COC(C)(C)c1ccnc(N2C(=O)N(C)C(C)C2O)c1 (centres unmarked) [Compound A89]"
recorded_value = 4

[[record]]
molecule = "C=CCN1C(=O)N(c2cc(C(F)(F)F)ccn2)C(O)C1C (centres unmarked) [Compound A107]"
recorded_value = 5

[[record]]
molecule = "CON1C(=O)N(c2cc(C(F)(F)F)c(Br)cn2)C(O)C1C (single isomer, unassigned) [Compound A55]"
recorded_value = 4

[[record]]
molecule = "CC1NC(=O)N(c2cc(C(F)(F)Cl)ccn2)C1O (centres unmarked) [Compound A91]"
recorded_value = 4

[[record]]
molecule = "CC1NC(=O)N(c2cc(C(F)(F)F)ccn2)C1O (centres unmarked) [Compound A40]"
recorded_value = 3

[[record]]
molecule = "CCC1C(O)N(c2cc(C(F)(F)F)ccn2)C(=O)N1OC (single isomer, unassigned) [Compound A28]"
recorded_value = 4

[[record]]
molecule = "CC1C(O)N(c2cc(C(F)F)ccn2)C(=O)N1C (centres unmarked) [Compound A84]"
recorded_value = 5

[[record]]
molecule = "CCOC1C(OC(C)=O)N(c2cc(C(F)(F)F)ccn2)C(=O)N1C (centres unmarked) [Compound A96]"
recorded_value = 4

[[record]]
molecule = "CCO[C@@H]1[C@@H](OC(=O)[C@](OC)(c2ccccc2)C(F)(F)F)N(c2cc(C(F)(F)F)ccn2)C(=O)N1C [Compound A102]"
recorded_value = 4

[[record]]
molecule = "CON1C(=O)N(c2cc(C(F)(F)F)ccn2)C(O)[C@H]1C (mixture of isomers) [Compound A4]"
recorded_value = 5

[[record]]
molecule = "CC1C(O)N(c2cc(C(F)(F)F)c(-c3cncnc3)cn2)C(=O)N1C (centres unmarked) [Compound A11]"
recorded_value = 4

[[record]]
molecule = "CC1C(O)N(c2cc(C(F)(F)F)c(Cl)cn2)C(=O)N1C (centres unmarked) [Compound A49]"
recorded_value = 4


* * *

# System: AMARE
# ASSAY NOTES: Post-emergence herbicidal activity, glasshouse pot test; note: key: 5=total damage to plant; 0=no damage to plant
# Type: in vivo
# CONDITION: Amaranthus retroflexus; application post-emergence; rate 1000 g/Ha; evaluated after 13 days
# Lookup of reported Post-emergence herbicidal activity AMARE (damage score 0-5) keyed by entry
MEASURED QUANTITY: Post-emergence herbicidal activity AMARE (damage score 0-5)

[[record]]
compound = "CC1C(O)N(c2cc(C(F)(F)C(F)(F)F)ccn2)C(=O)N1C (single isomer, unassigned) [Compound A72]"
subject_of_test = "AMARE"
recorded_value = 5

[[record]]
compound = "CCOC1C(O)N(c2cc(C(F)(F)F)c(-c3cncnc3)cn2)C(=O)N1C (stereo not drawn) [Compound A14]"
subject_of_test = "AMARE"
recorded_value = 5

[[record]]
compound = "CCO[C@@H]1[C@@H](OC(=O)C(C)Cl)N(c2cc(C(F)(F)F)ccn2)C(=O)N1C (stereo partly drawn) [Compound A101]"
subject_of_test = "AMARE"
recorded_value = 5

[[record]]
compound = "CON1C(=O)N(c2cc(Cl)c(C(=O)NC(C)(C)C)cn2)C(O)C1C (stereo not drawn) [Compound A70]"
subject_of_test = "AMARE"
recorded_value = 5

[[record]]
compound = "COC[C@@H]1C(O)N(c2cc(C(F)(F)F)ccn2)C(=O)N1C (stereo partly drawn) [Compound A77]"
subject_of_test = "AMARE"
recorded_value = 5

[[record]]
compound = "CC1C(O)N(c2cc(C(F)(F)Cl)ccn2)C(=O)N1C (stereo not drawn) [Compound A85]"
subject_of_test = "AMARE"
recorded_value = 5

[[record]]
compound = "CN1C(=O)N(c2cc(C(F)(F)F)c(I)cn2)C(O)C1O (stereo not drawn) [Compound A17]"
subject_of_test = "AMARE"
recorded_value = 5

[[record]]
compound = "CCOC1C(O)N(c2cc(C(C)(C)F)ccn2)C(=O)N1C (stereo not drawn) [Compound A61]"
subject_of_test = "AMARE"
recorded_value = 5

[[record]]
compound = "C#CCOC1C(O)N(c2cc(C(F)(F)F)ccn2)C(=O)N1C (stereo not drawn) [Compound A44]"
subject_of_test = "AMARE"
recorded_value = 5

[[record]]
compound = "CC1NC(=O)N(c2cc(C(F)(F)F)ccn2)C1O (stereo not drawn) [Compound A40]"
subject_of_test = "AMARE"
recorded_value = 5

[[record]]
compound = "CC1C(O)N(c2cc(Cl)ccn2)C(=O)N1C (stereo not drawn) [Compound A92]"
subject_of_test = "AMARE"
recorded_value = 5

[[record]]
compound = "CCCOC1C(O)N(c2cc(C(F)(F)F)ccn2)C(=O)N1C (stereo not drawn) [Compound A2]"
subject_of_test = "AMARE"
recorded_value = 5

[[record]]
compound = "CN1C(=O)N(c2cc(C(F)(F)F)ccn2)C(O)C1CO (stereo not drawn) [Compound A43]"
subject_of_test = "AMARE"
recorded_value = 1

[[record]]
compound = "CC1C(O)N(c2cc(C(F)(F)F)c(C(=O)NC(C)(C)C)cn2)C(=O)N1C (stereo not drawn) [Compound A65]"
subject_of_test = "AMARE"
recorded_value = 5

[[record]]
compound = "CC1C(O)N(c2ccc(Cl)cn2)C(=O)N1C (single isomer, unassigned) [Compound A26]"
subject_of_test = "AMARE"
recorded_value = 3

[[record]]
compound = "CN1C(=O)N(c2cc(C(F)(F)F)ccn2)C(O)C1CC(F)(F)F (stereo not drawn) [Compound A68]"
subject_of_test = "AMARE"
recorded_value = 0

[[record]]
compound = "CON1C(=O)N(c2cc(C(F)(F)F)ccn2)C(NCc2ccccc2)[C@@H]1C (stereo partly drawn) [Compound A104]"
subject_of_test = "AMARE"
recorded_value = 5

[[record]]
compound = "C=CC1C(O)N(c2cc(C(F)(F)F)ccn2)C(=O)N1C (stereo not drawn) [Compound A31]"
subject_of_test = "AMARE"
recorded_value = 5

